- System tested: sensing domain of P. fluorescens CtaA (Pseudomonas fluorescens, UniProt Q3K7T6)
- Assay protocol: Thermal shift assay
pKd: −log10 of the molar value.
Measured attribute: pKd

1. CC(C)C[C@H](N)C(=O)O | 5.30

----------
- System tested: sensing domain of P. fluorescens CtaA (Pseudomonas fluorescens)
- Sequence (Q3K7T6 30-277): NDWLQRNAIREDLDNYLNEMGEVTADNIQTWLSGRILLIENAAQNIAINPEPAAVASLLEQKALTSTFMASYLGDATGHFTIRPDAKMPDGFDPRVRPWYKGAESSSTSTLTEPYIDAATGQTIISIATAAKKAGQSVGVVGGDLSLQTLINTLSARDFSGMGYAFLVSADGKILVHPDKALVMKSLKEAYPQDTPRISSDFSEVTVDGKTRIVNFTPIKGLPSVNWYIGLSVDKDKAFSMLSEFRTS
- Assay protocol: Thermal shift assay
- Format: binding
- Assay setup: 5 μM CtaA, ligand 20 μM, pH 5.5
Measured attribute: Midpoint Transition Temperature in Presence of Ligand, Tm (°C)

1. C[C@H](N)C(=O)O | 56.1
2. CC(C)C[C@H](N)C(=O)O | 54.7
3. N[C@@H](CO)C(=O)O | 55.1
4. CC(C)[C@H](N)C(=O)O | 57.6
